The measured values listed here are drawn from PubChem BioAssay (NCI).

System: SF-295 CNS
Assay: NCI-60 one-dose screen, 48 h (100 = growth as untreated, 0 = no growth, -100 = all killed)
Conditions: 10 µM unless noted
Compounds without any hit were thinned out: in the full panel of roughly 83,000, 20% have a hit. The source made the active and inactive calls. Rule for the calls: active = growth percent below 10; inactive = the rest.
readout.kind: growth

>>> assay_value("COC(=O)CCC1=C(C)/C(=C/c2[nH]c(-c3ccc[nH]3)cc2OC)N=C1C")
"-30% (active)"
>>> assay_value("O=C1/C(=C/c2ccc([N+](=O)[O-])o2)Oc2ccc(Cl)cc21")
"103% (inactive)"
>>> assay_value("CC1=CSC2=NCCN12")
"132% (inactive)"
>>> assay_value("Cc1cc([N+](=O)[O-])c(C)cc1C(=O)O")
"96.9% (inactive)"
>>> assay_value("CC12CCCCC1C(C(N)=O)C(=O)O2 (stereo unspecified)")
"109% (inactive)"
>>> assay_value("CCn1c2c(c3ccccc31)SC1c3cccn3CCN1C2=S (stereo unspecified)")
"106% (inactive)"
